Listing of entries alongside the reported log10(IC50).
System: eosinophils
ASSAY COMMENT: Eosinophil shape change assay with human plasma
Format: cell-based
COND: Homo sapiens, Eosinophil, human plasma (50%), PGD2 100 nM activation, antagonistic activity
// stored as log10 of IC50 expressed in nM

// known answers, use as guide
MOLECULE	MEAS VALUE
COc1ccc(CC(=O)O)cc1-c1ccc(F)c2c1CN(C(=O)CC1CCc3ccccc3C1)CC2 (racemic)	1.75
O=C(O)Cc1ccc(-c2ccc(F)c3c2CN(C(=O)OCc2ccccc2)CC3)c(OCC(F)(F)F)c1	1.11
CC(C)Oc1ccc(OCC(=O)O)cc1-c1ccc(F)c2c1CN(C(=O)OCc1ccccc1)CC2	2.15
COc1ccc(CC(=O)O)cc1-c1ccc(F)c2c1CN(C(=O)CC1CCCc3ccccc31)CC2 (racemic)	1.81
CCOc1ccc(CC(=O)O)cc1-c1ccc(F)c2c1CN(C(=O)CC1(c3cccc(F)c3)CC1)CC2	1.88
CCOc1ccc(CC(=O)O)cc1-c1ccc(F)c2c1CN(C(=O)OCC(C)C)CC2	2.09
COc1ccc(CC(=O)O)cc1-c1ccc(F)c2c1CN(C(=O)[C@@H]1C[C@H]1c1ccccc1)C2 (racemic)	2.46
COc1cc(CC(=O)O)ccc1-c1ccc(F)c2c1CN(C(=O)OCc1ccccc1)CC2	2.07

Ask | Request the reported log10(IC50) associated with `CCOc1ccc(CC(=O)O)cc1-c1ccc(F)c2c1CN(C(=O)OCCC(C)C)CC2`
Reply | 1.88

Ask | Request the reported log10(IC50) associated with `CCOc1ccc(CC(=O)O)cc1-c1ccc(F)c2c1CN(C(=O)OCc1cnccn1)CC2`
Reply | 1.51

Ask | Request the reported log10(IC50) associated with `COc1ccc(CC(=O)O)cc1-c1ccc(Cl)c2c1CN(C(=O)OCc1ccccc1)CC2`
Reply | 2.49

Ask | Request the reported log10(IC50) associated with `CCCOc1ccc(CC(=O)O)cc1-c1ccc(F)c2c1CN(C(=O)OCc1ccccc1)CC2`
Reply | 1.38

Ask | Request the reported log10(IC50) associated with CCOc1ccc(CC(=O)O)cc1-c1ccc(F)c2c1CN(C(=O)CC(C)c1ccccn1)CC2 (racemic)
Reply | 1.49

Ask | Request the reported log10(IC50) associated with `CCOc1cc(CC(=O)O)ccc1-c1ccc(F)c2c1CN(C(=O)O[C@@H](C)c1ccccc1)CC2`
Reply | 2.09

Ask | Request the reported log10(IC50) associated with `CCOc1ccc(CC(=O)O)cc1-c1ccc(F)c2c1CN(C(=O)CC(C)(C)c1ccccc1)CC2`
Reply | 1.57

----------
Consider the following log10(IC50) values measured on hCRTH2 receptor (Homo sapiens (Human), UniProt Q9Y5Y4).
Sequence (Q9Y5Y4 whole entry): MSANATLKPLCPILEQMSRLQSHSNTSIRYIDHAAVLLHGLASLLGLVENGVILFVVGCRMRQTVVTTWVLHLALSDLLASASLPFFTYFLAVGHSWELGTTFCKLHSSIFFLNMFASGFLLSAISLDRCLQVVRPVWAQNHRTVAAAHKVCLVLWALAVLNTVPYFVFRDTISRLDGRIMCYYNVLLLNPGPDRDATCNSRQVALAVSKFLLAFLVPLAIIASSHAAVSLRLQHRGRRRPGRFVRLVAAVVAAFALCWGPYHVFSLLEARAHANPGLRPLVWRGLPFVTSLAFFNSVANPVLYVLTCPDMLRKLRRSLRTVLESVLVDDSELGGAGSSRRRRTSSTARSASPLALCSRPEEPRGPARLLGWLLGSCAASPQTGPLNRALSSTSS
// stored as log10 of IC50 expressed in nM

// known answers, use as guide
MOLECULE	log10(IC50)
COc1ccc(CC(=O)O)cc1-c1ccc(F)c2c1CN(C(=O)CCC(=O)c1ccccc1)CC2 [Example 118]	1.59
O=C(O)COc1ccc(OC(F)(F)F)c(-c2ccc(F)c3c2CN(C(=O)[C@@H]2C[C@H]2c2ccccc2)CC3)c1 [Example 160]	-0.17

Ask | Report log10(IC50) for CCOc1cc(CC(=O)O)ccc1-c1ccc(F)c2c1CN(C(=O)CCc1cccc(F)c1)CC2 [Example 316] tested on hCRTH2 receptor (Homo sapiens (Human), UniProt Q9Y5Y4).
Reply | 0.32

Ask | Report log10(IC50) for COc1ccc(CC(=O)O)cc1-c1ccc(F)c2c1CN(C(=O)CC1(C)CCCc3ccccc31)CC2 (racemic) [Example 239] tested on hCRTH2 receptor (Homo sapiens (Human), UniProt Q9Y5Y4).
Reply | 1.45

Ask | Report log10(IC50) for CCOc1cc(CC(=O)O)ccc1-c1ccc(F)c2c1CN(C(=O)O[C@@H](C)c1ccccc1)CC2 [Example 389] tested on hCRTH2 receptor (Homo sapiens (Human), UniProt Q9Y5Y4).
Reply | 1.22

Ask | Report log10(IC50) for C[C@H](CC(=O)N1CCc2c(F)ccc(-c3ccc(CC(=O)O)cc3OCC(F)(F)F)c2C1)c1ccccc1 [Example 347] tested on hCRTH2 receptor (Homo sapiens (Human), UniProt Q9Y5Y4).
Reply | 0.18

Ask | Report log10(IC50) for CCOc1cc(CC(=O)O)ccc1-c1ccc(F)c2c1CN(C(=O)NCCc1ccccc1)CC2 [Example 443] tested on hCRTH2 receptor (Homo sapiens (Human), UniProt Q9Y5Y4).
Reply | 1.26

Ask | Report log10(IC50) for COc1ccc(CC(=O)O)cc1-c1ccc(F)c2c1CN(C(=O)COC(C)(C)C)CC2 [Example 47] tested on hCRTH2 receptor (Homo sapiens (Human), UniProt Q9Y5Y4).
Reply | 2.74

Ask | Report log10(IC50) for CCOc1ccc(CC(=O)O)cc1-c1ccc(F)c2c1CN(C(=O)CC(CC)c1ccccn1)CC2 (racemic) [Example 308] tested on hCRTH2 receptor (Homo sapiens (Human), UniProt Q9Y5Y4).
Reply | 1.12

Ask | Report log10(IC50) for COc1ccc(CC(=O)O)cc1-c1ccc(F)c2c1CN(C(=O)CCc1ccccn1)CC2 [Example 91] tested on hCRTH2 receptor (Homo sapiens (Human), UniProt Q9Y5Y4).
Reply | 1.51

Ask | Report log10(IC50) for CCOc1ccc(CC(=O)O)cc1-c1ccc(F)c2c1CN(C(=O)C1CCc3cccc(OC)c3C1)CC2 (racemic) [Example 333] tested on hCRTH2 receptor (Homo sapiens (Human), UniProt Q9Y5Y4).
Reply | 1.36

Ask | Report log10(IC50) for COc1cc(CC(=O)O)cc(-c2ccc(F)c3c2CN(C(=O)OCc2ccccc2)CC3)c1 [Example 15] tested on hCRTH2 receptor (Homo sapiens (Human), UniProt Q9Y5Y4).
Reply | 1.27

Ask | Report log10(IC50) for COc1ccc(CC(=O)O)cc1-c1ccc(F)c2c1CN(C(=O)NCCc1ccccc1)CC2 [Example 133] tested on hCRTH2 receptor (Homo sapiens (Human), UniProt Q9Y5Y4).
Reply | 1.11

Ask | Report log10(IC50) for COc1cc(CC(=O)O)ccc1-c1ccc(F)c2c1CN(C(=O)CCc1ccccc1C)CC2 [Example 194] tested on hCRTH2 receptor (Homo sapiens (Human), UniProt Q9Y5Y4).
Reply | -0.12

Ask | Report log10(IC50) for COc1ccc(CC(=O)O)cc1-c1ccc(F)c2c1CN(C(=O)CCN1CCCc3ccccc31)CC2 [Example 53] tested on hCRTH2 receptor (Homo sapiens (Human), UniProt Q9Y5Y4).
Reply | 0.65
